testedOn: T1, TRAIL (TNFSF10) ectodomain (UniProt P50591 39-281, limits assumed)
T1 construct: extracellular domain; also called endogenous TRAIL; TRAIL ectodomain
experiment: SPR, mutant TRAIL-R2-Fc captured, TRAIL as analyte
kon strictly under 3000 M⁻¹ s⁻¹ means Condition met; at 3000 M⁻¹ s⁻¹ or over means Condition not met.

Answer whether the binder TRAIL-R2-Fc M152A (Fc fusion, human, not shown: a dimerising Fc or GST, range 58-184) QQDLAPQQRAAPQQKRSSPSEGLCPPGHHISEDGRDCISCKYGQDYSTHWNDLLFCLRCTRCDSGEVELSPCTTTRNTVCQCEEGTFREEDSPEACRKCRTGCPRGMVKVGDCTPWSDIECVHKESGLVPRGS has kon strictly less than 3000 M⁻¹ s⁻¹
Condition not met

Answer whether the binder TRAIL-R2-Fc V167A (Fc fusion, human, not shown: a dimerising Fc or GST, range 58-184) QQDLAPQQRAAPQQKRSSPSEGLCPPGHHISEDGRDCISCKYGQDYSTHWNDLLFCLRCTRCDSGEVELSPCTTTRNTVCQCEEGTFREEDSPEMCRKCRTGCPRGMVKAGDCTPWSDIECVHKESGLVPRGS has kon strictly less than 3000 M⁻¹ s⁻¹
Condition met

Answer whether the binder TRAIL-R2-Fc D148A (Fc fusion, human, not shown: a dimerising Fc or GST, range 58-184) QQDLAPQQRAAPQQKRSSPSEGLCPPGHHISEDGRDCISCKYGQDYSTHWNDLLFCLRCTRCDSGEVELSPCTTTRNTVCQCEEGTFREEASPEMCRKCRTGCPRGMVKVGDCTPWSDIECVHKESGLVPRGS has kon strictly less than 3000 M⁻¹ s⁻¹
Condition not met

Answer whether the binder TRAIL-R2-Fc P150A (Fc fusion, human, not shown: a dimerising Fc or GST, range 58-184) QQDLAPQQRAAPQQKRSSPSEGLCPPGHHISEDGRDCISCKYGQDYSTHWNDLLFCLRCTRCDSGEVELSPCTTTRNTVCQCEEGTFREEDSAEMCRKCRTGCPRGMVKVGDCTPWSDIECVHKESGLVPRGS has kon strictly less than 3000 M⁻¹ s⁻¹
Condition met

Answer whether the binder TRAIL-R2-Fc F112A (Fc fusion, human, not shown: a dimerising Fc or GST, range 58-184) QQDLAPQQRAAPQQKRSSPSEGLCPPGHHISEDGRDCISCKYGQDYSTHWNDLLACLRCTRCDSGEVELSPCTTTRNTVCQCEEGTFREEDSPEMCRKCRTGCPRGMVKVGDCTPWSDIECVHKESGLVPRGS has kon strictly less than 3000 M⁻¹ s⁻¹
Condition met

Answer whether the binder TRAIL-R2-Fc K155A (Fc fusion, human, not shown: a dimerising Fc or GST, range 58-184) QQDLAPQQRAAPQQKRSSPSEGLCPPGHHISEDGRDCISCKYGQDYSTHWNDLLFCLRCTRCDSGEVELSPCTTTRNTVCQCEEGTFREEDSPEMCRACRTGCPRGMVKVGDCTPWSDIECVHKESGLVPRGS has kon strictly less than 3000 M⁻¹ s⁻¹
Condition not met
